Test system: CAKI-1
Test: NCI tumour cell line growth inhibition, 48 h
The source made the active and inactive calls. No stated cut-off is given here; in the data, active = GI50 up to about 1.1 µM and inactive = higher.
Outcomes: active, inactive

[
  {
    "compound": "Cc1cc(C(C)(C)C)cc(CNC2CCCCC2)c1O",
    "tested.on": "CAKI-1",
    "answer.label": "inactive"
  },
  {
    "compound": "Nc1c(-c2nc3ccccc3o2)sc(=S)n1-c1ccc(Cl)cc1",
    "tested.on": "CAKI-1",
    "answer.label": "inactive"
  },
  {
    "compound": "CN(C)c1ccc(/N=C2/C=CC(=C(C#N)C#N)c3ccccc32)cc1",
    "tested.on": "CAKI-1",
    "answer.label": "active"
  },
  {
    "compound": "O=[N+]([O-])c1cc(F)ccc1Sc1ccccc1",
    "tested.on": "CAKI-1",
    "answer.label": "inactive"
  },
  {
    "compound": "COC(=O)/C(C#N)=C1\\CCc2ccccc21",
    "tested.on": "CAKI-1",
    "answer.label": "inactive"
  },
  {
    "compound": "CN(c1ccccc1)c1nc(=[N+]2CCCC2)ss1.[O-][Cl+3]([O-])([O-])[O-]",
    "tested.on": "CAKI-1",
    "answer.label": "inactive"
  },
  {
    "compound": "O=c1[nH]cnc2cccc(Cl)c12",
    "tested.on": "CAKI-1",
    "answer.label": "inactive"
  },
  {
    "compound": "O=C(Nc1ccccc1)c1cc2c(cc1Cl)SC(NNCCO)=NS2(=O)=O",
    "tested.on": "CAKI-1",
    "answer.label": "inactive"
  },
  {
    "compound": "COc1ccc(-c2c3ccccc3c(-c3ccc(OCCCCCBr)cc3)c3ccccc23)cc1",
    "tested.on": "CAKI-1",
    "answer.label": "inactive"
  },
  {
    "compound": "CCCCCCCCCCCCOc1ccc(/C=C/C2=[N+](CCCl)CCO2)cc1",
    "tested.on": "CAKI-1",
    "answer.label": "inactive"
  },
  {
    "compound": "CCN(CC)CCSc1c(C(C)=O)c(=O)n(-c2ccccc2)c(=S)n1-c1ccccc1",
    "tested.on": "CAKI-1",
    "answer.label": "inactive"
  },
  {
    "compound": "COC(=O)[C@H](Cc1ccccc1)NC(=O)NCCN(CCNC(=O)N[C@@H](Cc1ccccc1)C(=O)OC)C(=O)N[C@@H](Cc1ccccc1)C(=O)OC",
    "tested.on": "CAKI-1",
    "answer.label": "inactive"
  },
  {
    "compound": "CCCCCCCCCCCCCCCC(=O)OC1C(O)C(CO)OC(OC)C1NC(=O)N(CCCl)N=O (stereo not given)",
    "tested.on": "CAKI-1",
    "answer.label": "inactive"
  },
  {
    "compound": "O=C1C2=C(CC3=C(C2)CS(=O)(=O)C3)C(=O)C2=C1CC1=C(C2)CS(=O)(=O)C1",
    "tested.on": "CAKI-1",
    "answer.label": "inactive"
  },
  {
    "compound": "Cn1c(=O)c2c(nc3n(Cc4ccccc4)c(=O)c(NCCBr)cn23)n(C)c1=O",
    "tested.on": "CAKI-1",
    "answer.label": "inactive"
  },
  {
    "compound": "COC(=O)/C=C(\\S/C=C(/c1ccccc1)N1CCn2c(C(=O)c3ccccc3)c(C(=O)OC)c(C(=O)OC)c21)C(=O)OC",
    "tested.on": "CAKI-1",
    "answer.label": "inactive"
  },
  {
    "compound": "CC(CCCOC(c1ccccc1)(c1ccccc1)c1ccccc1)OC(=O)Nc1cc([N+](=O)[O-])cc([N+](=O)[O-])c1 (stereo not given)",
    "tested.on": "CAKI-1",
    "answer.label": "inactive"
  },
  {
    "compound": "CC(=O)Oc1c(-c2ccccc2)oc2ccccc12",
    "tested.on": "CAKI-1",
    "answer.label": "active"
  },
  {
    "compound": "Cn1c(N)[n+](C(=O)OCc2ccccc2)c(=O)c2c1ncn2C(=O)OCc1ccccc1",
    "tested.on": "CAKI-1",
    "answer.label": "inactive"
  },
  {
    "compound": "CCCCN(C)C(=O)C1=C(C)NC(C)=C(C(=O)N(C)CCCC)C1",
    "tested.on": "CAKI-1",
    "answer.label": "inactive"
  }
]

###

Test system: SNB-75
Test: NCI tumour cell line growth inhibition, 48 h
The source made the active and inactive calls. Cut-off read from the data, not from the text of the source: active = GI50 up to about 1.1 µM and inactive = higher.
Reported GI50 by item:

[
  {
    "compound": "COC(=O)C(=O)C(C(=O)C=C(C)C)C(=O)C(=O)Nc1cccc(C(C)=O)c1 (configuration not stated)",
    "GI50": "> 100 µM (inactive)"
  },
  {
    "compound": "Clc1ccc(-c2nnc(-c3cccc4ccccc34)o2)cc1Cl",
    "GI50": "> 100 µM (inactive)"
  },
  {
    "compound": "CCN(CC(=O)O)CC(=O)O",
    "GI50": "> 100 µM (inactive)"
  },
  {
    "compound": "c1cc(CCN2CCCCC2)ccn1",
    "GI50": "> 100 µM (inactive)"
  },
  {
    "compound": "CCCCCCc1ccc(O)cc1O [HEXYLRESORCINOL]",
    "GI50": "28.8 µM (inactive)"
  },
  {
    "compound": "CCN(CC)CCSc1c(C(C)=O)c(=O)n(-c2ccccc2)c(=S)n1-c1ccccc1",
    "GI50": "33.3 µM (inactive)"
  },
  {
    "compound": "O=C1CC(c2c(-c3ccccc3)[nH]c3ccccc23)C(=O)N1 (configuration not stated)",
    "GI50": "35.4 µM (inactive)"
  },
  {
    "compound": "CN(/N=C/c1cccs1)c1ccc(Cl)cc1[N+](=O)[O-]",
    "GI50": "30.8 µM (inactive)"
  },
  {
    "compound": "COC(=O)[C@H](Cc1ccccc1)NC(=O)NCCN(CCNC(=O)N[C@@H](Cc1ccccc1)C(=O)OC)C(=O)N[C@@H](Cc1ccccc1)C(=O)OC",
    "GI50": "20.7 µM (inactive)"
  },
  {
    "compound": "CCc1cccc(CC)c1NC(=O)C1=CNC(C)=C(C(=O)Nc2c(CC)cccc2CC)C1c1ccc(O)c(OC)c1 (configuration not stated)",
    "GI50": "44.7 µM (inactive)"
  },
  {
    "compound": "CCc1nc2c(O)ccc(O)c2nc1C",
    "GI50": "20.8 µM (inactive)"
  },
  {
    "compound": "COC(=O)C(/C(=N\\O)C(=O)Nc1cccc(Cl)c1C)c1cnc2ccccc2n1 (configuration not stated)",
    "GI50": "> 100 µM (inactive)"
  },
  {
    "compound": "COc1ccc(-n2cnc3c(NC(CCSC)C(=O)O)ncnc32)cc1 (configuration not stated)",
    "GI50": "> 100 µM (inactive)"
  },
  {
    "compound": "Cc1ccc2c(O)cc(-c3sc4ccccc4c3C)nc2n1",
    "GI50": "17.3 µM (inactive)"
  },
  {
    "compound": "O=C(Cc1nc2ccc(C(=O)c3ccccc3)cc2nc1O)C(=O)Nc1ccc(C(F)(F)F)cc1[N+](=O)[O-]",
    "GI50": "45.9 µM (inactive)"
  },
  {
    "compound": "COc1cc(OC)c2c(=O)c3cccc(C)c3n(C)c2c1",
    "GI50": "61.5 µM (inactive)"
  },
  {
    "compound": "COc1cc(/C=C2\\CC(C)C/C(=C\\c3ccc(O)c(OC)c3)C2=O)ccc1O (configuration not stated)",
    "GI50": "4.24 µM (inactive)"
  },
  {
    "compound": "COC(=NCCC1=CCCCC1)OC",
    "GI50": "71.6 µM (inactive)"
  },
  {
    "compound": "COc1cc(Oc2c(C)c(Cl)c(OC)c(Cl)c2OC)c2c(c1Cl)COC2=O",
    "GI50": "41.9 µM (inactive)"
  },
  {
    "compound": "CC(=O)c1ccc2c3c1[C@@H]1O[C@@H]1c1cccc(c1-3)[C@@H]1O[C@H]21",
    "GI50": "13.5 µM (inactive)"
  },
  {
    "compound": "Cc1ccc(O)c(C(=O)CCCC(=O)c2cc(C)ccc2O)c1",
    "GI50": "81.5 µM (inactive)"
  },
  {
    "compound": "CC(=O)N1C(NN(C)C)CCN1c1ccccc1 (configuration not stated)",
    "GI50": "> 10 µM (inactive)"
  }
]
